subject_of_test: cathepsin S (Homo sapiens, UniProt P25774)
Sequence (P25774 115-331, species assumed): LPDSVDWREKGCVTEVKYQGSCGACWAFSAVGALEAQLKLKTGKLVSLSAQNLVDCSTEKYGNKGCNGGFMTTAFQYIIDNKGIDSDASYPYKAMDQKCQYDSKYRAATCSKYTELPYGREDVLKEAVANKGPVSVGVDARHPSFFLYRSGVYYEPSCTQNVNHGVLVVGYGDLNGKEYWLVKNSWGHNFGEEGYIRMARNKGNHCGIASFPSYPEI
Residues, ends and D or L forms follow the SMILES beside them. *: point of attachment. Octanoyl = CCCCCCCC(=O)*
endpoint_label: IC50 (nM)
Numbers only here, please. The scale is nM.

Q. What measured IC50 is associated with CCCCCCCC(=O)N[C@@H](CCSC)C(=O)N[C@H](C=O)Cc1ccccc1 [Compound 16, N-octanoyl-Met-Phe-H] (Octanoyl-Met-Phe-aldehyde) on cathepsin S (Homo sapiens, UniProt P25774)?
A. 13
